Reference for the values: patent US20190382488A1

- EXPERIMENTAL SYSTEM: T1, recombinant human CD8 (rhCD8) (human, UniProt P01732 22-182)
- T1 construct: Soluble purified recombinant protein; also called purified recombinant human CD8 protein; soluble CD8
- T1 sequence (P01732 22-182 limits assumed): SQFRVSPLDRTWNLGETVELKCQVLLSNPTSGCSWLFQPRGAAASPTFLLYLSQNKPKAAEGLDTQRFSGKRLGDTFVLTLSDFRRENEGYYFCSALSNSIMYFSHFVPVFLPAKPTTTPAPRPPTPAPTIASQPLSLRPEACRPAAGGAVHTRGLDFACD
- ASSAY METHOD TEXT: SPR (BIAcore), minibody captured via anti-human IgG Fc, hCD8 analyte at 50 nM
MEASUREMENT NAME: Ka (M⁻¹)
Return type: number; implicit unit M⁻¹.

### Prompt Looking for the measured Ka of IAb_Mb1b_CD8 (other, also called IAb M1b CD8) DVQITQSPSSLSASVGDRVTITCRTSRSISQYLAWYQQKPGKVPKLLIYSGSTLQSGVPSRFSGSGSGTDFTLTISSLQPEDVATYYCQQHNENPLTFGGGTKVEIKGSTSGGGSGGGSGGGGSSEVQLVESGGGLVQPGGSLRLSCAASGFNIKDTYIHFVRQAPGKGLEWIGRIDPANDNTLYASKFQGKATISADTSKNTAYLQMNSLRAEDTAVYYCGRGYGYYVFDHWGQGTLVTVSSEPKSCDKTHTCPPCGGGSSGGGSGGQPREPQVYTLPPSRDELTKNQVSLTCLVKGFYPSDIAVEWESNGQPENNYKTTPPVLDSDGSFFLYSKLTVDKSRWQQGNVFSCSVMHEALHNHYTQKSLSLSPGK , can you help?
### Response 5.4e+08

### Prompt Returns the measured Ka for the input binder. Input: IAb_Mb2c_CD8 (other, also called variant 2c) QVQLVQSGAEVKKPGATVKISCKVSGFNIKDTYIHFVQQAPGKGLEWIGRIDPANDNTLYASKFQGKATITADTSTDTAYMELSSLRSGDTAVYYCGRGYGYYVFDHWGQGTLVTVSSGSTSGGGSGGGSGGGGSSDVQITQSPSSLSASVGDRVTITCRTSRSISQYLAWYQQKPGKVPKLLIYSGSTLQSGVPSRFSGSGSGTDFTLTISSLQPEDVATYYCQQHNENPLTFGGGTKVEIKEPKSCDKTHTCPPCGGGSSGGGSGGQPREPQVYTLPPSRDELTKNQVSLTCLVKGFYPSDIAVEWESNGQPENNYKTTPPVLDSDGSFFLYSKLTVDKSRWQQGNVFSCSVMHEALHNHYTQKSLSLSPGK
### Response 2.2e+08

### Prompt Can you look up the measured Ka of IAb_Mb2b_CD8 (other, also called IAb M2b CD8) EVQLVESGGGLVQPGGSLRLSCAASGFNIKDTYIHFVRQAPGKGLEWIGRIDPANDNTLYASKFQGKATISADTSKNTAYLQMNSLRAEDTAVYYCGRGYGYYVFDHWGQGTLVTVSSGSTSGGGSGGGSGGGGSSDVQITQSPSSLSASVGDRVTITCRTSRSISQYLAWYQQKPGKVPKLLIYSGSTLQSGVPSRFSGSGSGTDFTLTISSLQPEDVATYYCQQHNENPLTFGGGTKVEIKEPKSCDKTHTCPPCGGGSSGGGSGGQPREPQVYTLPPSRDELTKNQVSLTCLVKGFYPSDIAVEWESNGQPENNYKTTPPVLDSDGSFFLYSKLTVDKSRWQQGNVFSCSVMHEALHNHYTQKSLSLSPGK for me?
### Response 2.6e+08

### Prompt Ka for IAb_Mb2a_CD8 (other, also called variant 2a) EVQLVESGGGLVQPGGSLRLSCAASGFNIKDTYIHFVRQAPGKGLEWIGRIDPANDNTLYASKFQGKATISADTSKNTAYLQMNSLRAGDTAVYYCGRGYGYYVFDHWGQGTLVTVSSGSTSGGGSGGGSGGGGSSDVQITQSPSSLSASVGDRVTITCRTSRSISQYLAWYQQKPGKVPKLLIYSGSTLQSGVPSRFSGSGSGTDFTLTISSLQPEDVATYYCQQHNENPLTFGGGTKVEIKEPKSCDKTHTCPPCGGGSSGGGSGGQPREPQVYTLPPSRDELTKNQVSLTCLVKGFYPSDIAVEWESNGQPENNYKTTPPVLDSDGSFFLYSKLTVDKSRWQQGNVFSCSVMHEALHNHYTQKSLSLSPGK ?
### Response 2.2e+08

### Prompt Fill blank: measured Ka of the binder IAb_Mb1a_CD8 (other, also called variant 1a) DVQITQSPSSLSASVGDRVTITCRTSRSISQYLAWYQQKPGKVPKLLIYSGSTLQSGVPSRFSGSGSGTDFTLTISSLQPEDVATYYCQQHNENPLTFGGGTKVEIKGSTSGGGSGGGSGGGGSSEVQLVESGGGLVQPGGSLRLSCAASGFNIKDTYIHFVRQAPGKGLEWIGRIDPANDNTLYASKFQGKATISADTSKNTAYLQMNSLRAGDTAVYYCGRGYGYYVFDHWGQGTLVTVSSEPKSCDKTHTCPPCGGGSSGGGSGGQPREPQVYTLPPSRDELTKNQVSLTCLVKGFYPSDIAVEWESNGQPENNYKTTPPVLDSDGSFFLYSKLTVDKSRWQQGNVFSCSVMHEALHNHYTQKSLSLSPGK is ____.
### Response 5.3e+08

### Prompt Which measured Ka value corresponds to IAb_Mb1c_CD8 (other, also called variant 1c) DVQITQSPSSLSASVGDRVTITCRTSRSISQYLAWYQQKPGKVPKLLIYSGSTLQSGVPSRFSGSGSGTDFTLTISSLQPEDVATYYCQQHNENPLTFGGGTKVEIKGSTSGGGSGGGSGGGGSSQVQLVQSGAEVKKPGATVKISCKVSGFNIKDTYIHFVQQAPGKGLEWIGRIDPANDNTLYASKFQGKATITADTSTDTAYMELSSLRSGDTAVYYCGRGYGYYVFDHWGQGTLVTVSSEPKSCDKTHTCPPCGGGSSGGGSGGQPREPQVYTLPPSRDELTKNQVSLTCLVKGFYPSDIAVEWESNGQPENNYKTTPPVLDSDGSFFLYSKLTVDKSRWQQGNVFSCSVMHEALHNHYTQKSLSLSPGK ?
### Response 4e+08

### Prompt Give its Ka value. Item: IAb_Mb1d_CD8 (other, also called variant 1d) DVQITQSPSSLSASVGDRVTITCRTSRSISQYLAWYQQKPGKVPKLLIYSGSTLQSGVPSRFSGSGSGTDFTLTISSLQPEDVATYYCQQHNENPLTFGGGTKVEIKGSTSGGGSGGGSGGGGSSQVQLVQSGAEVKKPGATVKISCKVSGFNIKDTYIHFVQQAPGKGLEWIGRIDPANDNTLYASKFQGKATITADTSTDTAYMELSSLRSEDTAVYYCGRGYGYYVFDHWGQGTLVTVSEPKSCDKTHTCPPCGGGSSGGGSGGQPREPQVYTLPPSRDELTKNQVSLTCLVKGFYPSDIAVEWESNGQPENNYKTTPPVLDSDGSFFLYSKLTVDKSRWQQGNVFSCSVMHEALHNHYTQKSLSLSPGK
### Response 3.4e+08

### Prompt What value of measured Ka is listed for IAb_Mb2d_CD8 (other, also called variant 2d) QVQLVQSGAEVKKPGATVKISCKVSGFNIKDTYIHFVQQAPGKGLEWIGRIDPANDNTLYASKFQGKATITADTSTDTAYMELSSLRSEDTAVYYCGRGYGYYVFDHWGQGTLVTVSGSTSGGGSGGGSGGGGSSDVQITQSPSSLSASVGDRVTITCRTSRSISQYLAWYQQKPGKVPKLLIYSGSTLQSGVPSRFSGSGSGTDFTLTISSLQPEDVATYYCQQHNENPLTFGGGTKVEIKEPKSCDKTHTCPPCGGGSSGGGSGGQPREPQVYTLPPSRDELTKNQVSLTCLVKGFYPSDIAVEWESNGQPENNYKTTPPVLDSDGSFFLYSKLTVDKSRWQQGNVFSCSVMHEALHNHYTQKSLSLSPGK ?
### Response 1.8e+08
